Target: CDK9/cyclinT1 complex (Homo sapiens)
Sequence (P50750 whole entry, species assumed): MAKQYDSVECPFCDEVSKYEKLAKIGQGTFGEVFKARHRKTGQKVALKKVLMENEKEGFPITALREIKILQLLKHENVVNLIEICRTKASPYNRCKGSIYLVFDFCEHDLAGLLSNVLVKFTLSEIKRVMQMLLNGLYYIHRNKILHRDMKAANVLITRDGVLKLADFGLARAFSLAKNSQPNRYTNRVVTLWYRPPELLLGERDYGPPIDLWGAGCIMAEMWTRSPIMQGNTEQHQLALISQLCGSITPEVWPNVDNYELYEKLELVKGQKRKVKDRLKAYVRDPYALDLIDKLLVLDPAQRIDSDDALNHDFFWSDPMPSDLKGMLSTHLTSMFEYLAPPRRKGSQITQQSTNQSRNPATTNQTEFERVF
Sequence (O60563 whole entry partner, species assumed): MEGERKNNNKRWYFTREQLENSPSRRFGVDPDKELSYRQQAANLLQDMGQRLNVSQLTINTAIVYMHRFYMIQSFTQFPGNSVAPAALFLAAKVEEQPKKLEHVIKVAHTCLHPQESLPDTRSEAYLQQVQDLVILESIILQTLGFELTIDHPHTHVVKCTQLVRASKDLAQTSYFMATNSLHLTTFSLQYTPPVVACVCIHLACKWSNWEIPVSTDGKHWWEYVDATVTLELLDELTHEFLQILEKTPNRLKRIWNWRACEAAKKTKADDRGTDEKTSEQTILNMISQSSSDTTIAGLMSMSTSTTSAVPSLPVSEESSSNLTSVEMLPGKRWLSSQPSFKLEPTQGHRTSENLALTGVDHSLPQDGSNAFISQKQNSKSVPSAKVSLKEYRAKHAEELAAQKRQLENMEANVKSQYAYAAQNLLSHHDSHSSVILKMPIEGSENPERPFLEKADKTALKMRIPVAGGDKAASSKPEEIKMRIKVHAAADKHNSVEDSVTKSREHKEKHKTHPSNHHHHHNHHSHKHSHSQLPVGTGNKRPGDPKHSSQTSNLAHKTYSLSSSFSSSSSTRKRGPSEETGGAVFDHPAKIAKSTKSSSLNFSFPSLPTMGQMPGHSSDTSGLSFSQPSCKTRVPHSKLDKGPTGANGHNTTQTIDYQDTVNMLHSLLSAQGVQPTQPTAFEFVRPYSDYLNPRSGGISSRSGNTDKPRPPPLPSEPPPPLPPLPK
Experiment: In-vitro enzymatic inhibitory activity testing, CDK9 inhibition assay (Caliper EZ Reader II)
Conditions: CDK9/cyclinT1 8 nM, 180 min at 27° C.
Exercise: state measured IC50 for each of the compounds provided.

In the examples that follow, each entry is paired with its recorded IC50.
{"columns": ["compound", "studyTarget", "measuredValue"],
 "data": [
  ["CP(C)(=O)c1cccc2c(-c3nc(N[C@H]4CCCC[C@@H]4O)ncc3C(F)(F)F)c[nH]c12 [Compound 165]", "CDK9/cyclinT1 complex (Homo sapiens)", "> 50 µM"],
  ["CP(C)(=O)c1cccc2c(-c3nc(N[C@@H](CO)C4CC4)ncc3C(F)(F)F)c[nH]c12 [Compound 159]", "CDK9/cyclinT1 complex (Homo sapiens)", "> 50 µM"],
  ["C[C@H]1COCCN1c1ccc2c(-c3nc(N[C@H]4CC[C@@H](N)C4)ncc3C(F)(F)F)c[nH]c2n1 [Compound 68]", "CDK9/cyclinT1 complex (Homo sapiens)", "5 to 50 µM"]
]}

Now for the compound whose IC50 we want.
Prompt: Find the recorded IC50 belonging to CP(C)(=O)c1cccc2c(-c3nc(NC4CC45CCNC5)ncc3C(F)(F)F)c[nH]c12 (single isomer, unassigned) [Compound 110] and report it.
Response: > 50 µM

====

Target: CDK7/cyclinH/MAT1 complex (Homo sapiens, UniProt P50613)
Sequence (P50613 whole entry, species assumed): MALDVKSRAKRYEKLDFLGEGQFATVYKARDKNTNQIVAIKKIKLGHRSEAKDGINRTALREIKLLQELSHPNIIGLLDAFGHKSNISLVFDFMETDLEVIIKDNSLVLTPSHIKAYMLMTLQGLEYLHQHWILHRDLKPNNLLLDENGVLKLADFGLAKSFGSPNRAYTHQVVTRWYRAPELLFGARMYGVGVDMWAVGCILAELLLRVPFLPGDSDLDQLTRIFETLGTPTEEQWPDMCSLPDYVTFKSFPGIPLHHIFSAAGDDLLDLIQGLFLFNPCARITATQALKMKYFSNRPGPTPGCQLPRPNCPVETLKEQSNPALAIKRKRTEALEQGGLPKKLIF
Sequence (P51946 whole entry partner, species assumed): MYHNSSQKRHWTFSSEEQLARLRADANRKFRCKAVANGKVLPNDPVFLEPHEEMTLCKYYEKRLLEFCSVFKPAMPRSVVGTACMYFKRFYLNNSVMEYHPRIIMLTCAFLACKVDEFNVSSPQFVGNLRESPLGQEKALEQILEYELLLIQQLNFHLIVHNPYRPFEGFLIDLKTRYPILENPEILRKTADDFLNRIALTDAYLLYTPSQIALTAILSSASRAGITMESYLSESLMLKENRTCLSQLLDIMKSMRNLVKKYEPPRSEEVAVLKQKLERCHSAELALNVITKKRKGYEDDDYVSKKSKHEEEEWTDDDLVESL
Sequence (P51948 whole entry partner, species assumed): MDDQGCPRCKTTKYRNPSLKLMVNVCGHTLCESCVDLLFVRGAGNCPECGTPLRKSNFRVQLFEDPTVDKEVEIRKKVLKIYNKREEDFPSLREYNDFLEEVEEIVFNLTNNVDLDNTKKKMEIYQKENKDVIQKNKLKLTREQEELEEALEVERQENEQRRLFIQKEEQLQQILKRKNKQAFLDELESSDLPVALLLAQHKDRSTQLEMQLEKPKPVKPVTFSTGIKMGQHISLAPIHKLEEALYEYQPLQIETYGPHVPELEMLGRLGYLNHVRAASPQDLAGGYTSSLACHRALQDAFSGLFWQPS
Experiment: In-vitro enzymatic inhibitory activity testing, CDK7 inhibition assay (Caliper EZ Reader II)
Conditions: CDK7/cyclinH/MAT1 6 nM, 180 min at 27° C.
Procedure: CDK12/CyclinK was diluted in an assay buffer (80 mM MES PH 6.5, 0.01% Tween 20, 50 ug/mL BSA, 10 mM MgCl2) to afford a corresponding enzyme solution with the 2.4 concentration. […] A reaction mixture was analyzed on Caliper EZ Reader II by electrophoretic separation of a fluorogenic substrate and a phosphorylated product. Data were calculated by using GraphPad Prism version 6.0, and IC50 values were adjusted and obtained by using a nonlinear regression model of a dose response curve.
Exercise: state measured IC50 for each of the compounds provided.

In the examples that follow, each entry is paired with its recorded IC50.
{"columns": ["compound", "studyTarget", "IC50"],
 "data": [
  ["CC(C)C(O)CNc1ncc(C(F)(F)F)c(-c2c[nH]c3c(P(C)(C)=O)cccc23)n1 (stereo not shown)", "CDK7/cyclinH/MAT1 complex (Homo sapiens, UniProt P50613)", "20 to 200 nM"],
  ["CP(C)(=O)c1cccc2c(-c3nc(N[C@@H]4CC(F)(F)C[C@@H]4O)ncc3C(F)(F)F)c[nH]c12 (relative stereo)", "CDK7/cyclinH/MAT1 complex (Homo sapiens, UniProt P50613)", "20 to 200 nM"],
  ["CP(C)(=O)c1cccc2c(-c3nc(NC4CC45CCNC5)ncc3C(F)(F)F)c[nH]c12 (single isomer, unassigned) [Compound 110]", "CDK7/cyclinH/MAT1 complex (Homo sapiens, UniProt P50613)", "< 20 nM"],
  ["CP(C)(=O)c1cccc2c(-c3nc(NCCO)ncc3C(F)(F)F)c[nH]c12", "CDK7/cyclinH/MAT1 complex (Homo sapiens, UniProt P50613)", "< 20 nM"],
  ["C[C@@H](CO)Nc1ncc(F)c(-c2c[nH]c3c(P(C)(C)=O)cccc23)n1", "CDK7/cyclinH/MAT1 complex (Homo sapiens, UniProt P50613)", "200 to 5000 nM"],
  ["CP(C)(=O)c1cccc2c(-c3nc(NC4(CO)CC(F)(F)C4)ncc3C(F)(F)F)c[nH]c12", "CDK7/cyclinH/MAT1 complex (Homo sapiens, UniProt P50613)", "20 to 200 nM"],
  ["CP(C)(=O)c1cccc2c(-c3nc(N[C@@H]4CCC45CNC5)ncc3C(F)(F)F)c[nH]c12", "CDK7/cyclinH/MAT1 complex (Homo sapiens, UniProt P50613)", "< 20 nM"],
  ["FC(F)(F)c1cnc(NC2CCCC3(CCNCC3)C2)nc1-c1c[nH]c2nc(N3CCOCC3)ccc12 (stereo not shown)", "CDK7/cyclinH/MAT1 complex (Homo sapiens, UniProt P50613)", "20 to 200 nM"]
]}

Below is a list of compounds. For each, state its recorded IC50.
1. CP(C)(=O)c1cccc2c(-c3nc(N[C@H]4CC[C@H](O)C4)ncc3C(F)(F)F)c[nH]c12
2. CC(O)[C@H](C)Nc1ncc(C(F)(F)F)c(-c2c[nH]c3c(P(C)(C)=O)cccc23)n1 (single isomer, unassigned) [Compound 129]

Response:
["< 20 nM", "< 20 nM"]

Below is a list of compounds. For each, state its recorded IC50.
1. CP(C)(=O)c1cccc2c(-c3nc(N[C@@H](CO)C4CC4)ncc3C(F)(F)F)c[nH]c12
2. CC(CO)CNc1ncc(C(F)(F)F)c(-c2c[nH]c3c(P(C)(C)=O)cccc23)n1 (single isomer, unassigned) [Compound 150]
3. CP(C)(=O)c1cccc2c(-c3nc(NC4CCC[C@H]4CN)ncc3C(F)(F)F)c[nH]c12 (stereo in doubt)
4. CN(C)CC1CCCC1Nc1ncc(C(F)(F)F)c(-c2c[nH]c3c(P(C)(C)=O)cccc23)n1 (single isomer, unassigned) [Compound 136]
5. FC(F)(F)c1cnc(NC2COC3(CCNCC3)C2)nc1-c1c[nH]c2nc(N3CCOCC3)ccc12 (stereo not shown)
6. FC(F)(F)c1cnc(NC2CCCNCC2)nc1-c1c[nH]c2nc(N3CCOCC3)ccc12 (single isomer, unassigned) [Compound 48]

Response:
["< 20 nM", "< 20 nM", "< 20 nM", "20 to 200 nM", "200 to 5000 nM", "20 to 200 nM"]

====

Target: CDK7/cyclinH/MAT1 complex (Homo sapiens, UniProt P50613)
Assay: In-vitro enzymatic inhibitory activity testing, CDK7 inhibition assay (Caliper EZ Reader II)
Details: CDK7/cyclinH/MAT1 6 nM, 180 min at 27° C.
measuredProperty: IC50

In the examples that follow, each entry is paired with its recorded IC50.
{"columns": ["molecule", "measuredValue"],
 "data": [
  ["C[C@H](O)CNc1ncc(C(F)(F)F)c(-c2c[nH]c3c(P(C)(C)=O)cccc23)n1", "< 20 nM"],
  ["Cc1cnc(N[C@@H](C)CO)nc1-c1c[nH]c2c(P(C)(C)=O)cccc12", "20 to 200 nM"],
  ["COc1cc(P(C)(C)=O)c2[nH]cc(-c3nc(N[C@@H](C)CO)ncc3C(F)(F)F)c2c1", "20 to 200 nM"],
  ["CP(C)(=O)c1cccc2c(-c3nc(NC4(CO)CCOC4)ncc3C(F)(F)F)c[nH]c12 (single isomer, unassigned) [Compound 118]", "< 20 nM"]
]}

Below is a list of molecules. For each, state its recorded IC50.
1. FC(F)(F)c1cnc(NC2CCCNCC2)nc1-c1c[nH]c2nc(N3CCOCC3)ccc12 (single isomer, unassigned) [Compound 49]
2. CP(C)(=O)c1cccc2c(-c3nc(N[C@@H]4CCC[C@H]4O)ncc3C(F)(F)F)c[nH]c12
3. FC(F)(F)c1cnc(NCC2CCNC2)nc1-c1c[nH]c2nc(N3CCOCC3)ccc12 (centres unmarked)
4. CP(C)(=O)c1cccc2c(-c3nc(NC4CC(F)(F)CC4O)ncc3C(F)(F)F)c[nH]c12 (single isomer, unassigned) [Compound 189]

Response:
200 to 5000 nM
20 to 200 nM
20 to 200 nM
20 to 200 nM

Below is a list of molecules. For each, state its recorded IC50.
1. CP(C)(=O)c1cccc2c(-c3nc(N[C@@H]4COCC[C@H]4O)ncc3C(F)(F)F)c[nH]c12
2. C[C@@H](CO)Nc1ncc(C(F)(F)F)c(-c2n[nH]c3c(P(C)(C)=O)cccc23)n1
3. CP(C)(=O)c1cccc2c(-c3nc(NC4CC45CCNC5)ncc3C(F)(F)F)c[nH]c12 (single isomer, unassigned) [Compound 109]
4. FC(F)(F)c1cnc(NC2CCCNCC2)nc1-c1c[nH]c2nc(N3CCOCC3)ccc12 (centres unmarked) [Compound 47]

Response:
1. 20 to 200 nM
2. 20 to 200 nM
3. 20 to 200 nM
4. 20 to 200 nM

Below is a list of molecules. For each, state its recorded IC50.
1. CP(C)(=O)c1cccc2c(-c3nc(NCC4(O)CCOCC4)ncc3C(F)(F)F)c[nH]c12
2. CP(C)(=O)c1cccc2c(-c3nc(NCC(O)C4CCC4)ncc3C(F)(F)F)c[nH]c12 (single isomer, unassigned) [Compound 140]

Response:
1: 20 to 200 nM; 2: 20 to 200 nM

====

Experiment: Caco-2 membrane permeability and efflux rate
Type: in vitro ADME
Details: human, Caco-2, Caco-2, 5 μM, read-out: ER (efflux rate)
Exercise: state measured efflux ratio at 2 h, 5 μM for each of the molecules provided.
One number for each entry.

In the examples that follow, each entry is paired with its recorded efflux ratio at 2 h, 5 μM.
{"columns": ["molecule", "measuredValue"],
 "data": [
  ["CP(C)(=O)c1cccc2c(-c3nc(NC4(CO)CC(F)(F)C4)ncc3C(F)(F)F)c[nH]c12", 14.1],
  ["C[C@@H](CO)Nc1ncc(Cl)c(-c2c[nH]c3c(P(C)(C)=O)cccc23)n1", 5.38]
]}

Below is a list of molecules. For each, state its recorded efflux ratio at 2 h, 5 μM.
1. CP(C)(=O)c1cccc2c(-c3nc(NC4(CO)CCC4)ncc3C(F)(F)F)c[nH]c12
2. CP(C)(=O)c1cccc2c(-c3nc(N[C@H]4COC[C@@H]4O)ncc3C(F)(F)F)c[nH]c12
3. CP(C)(=O)c1cccc2c(-c3nc(NCC(F)(F)CO)ncc3C(F)(F)F)c[nH]c12
4. CP(C)(=O)c1cccc2c(-c3nc(NC[C@H]4C[C@](C)(O)C4)ncc3C(F)(F)F)c[nH]c12
5. CP(C)(=O)c1cccc2c(-c3nc(NC4(CO)CC(F)C4)ncc3C(F)(F)F)c[nH]c12 (stereo not drawn)

Response:
2.14
37.1
7.8
5.86
7.32

Where these numbers come from: patent US20240124504A1
